- Test system: IGR37 cells (parental)
- assay.method.text: Kinase inhibitor library screening, PrestoBlue cell viability, 1 or 10 μM, 72 h
- run.conditions: IGR37 Parental; 10μΜ; 72 h; in %
Here, each record is paired with measured Cell viability in kinase inhibitor library screening, IGR37 Parental, 10μΜ data.
outcome.measure: Cell viability in kinase inhibitor library screening, IGR37 Parental, 10μΜ

compound | number
O=C(O)c1ccc2c(c1)nc(Nc1cccc(Cl)c1)c1ccncc12 [cx-4945 (Silmitasertib)] | 86.7
Cc1ccc(NC(=O)c2cccc(C(C)(C)C#N)c2)cc1Nc1ccc2ncn(C)c(=O)c2c1 | 41.8
O=C1NC(=O)/C(=C/c2ccc(-c3ccc(F)cc3O)o2)S1 | 94.5
O=C1NC(=O)C(=Cc2ccc(-c3ccc(F)cc3)o2)S1 (stereo in doubt) | 103.3
c1cncc(CN2CCC(n3ncc4c(N5CCOCC5)nc(-c5ccc6[nH]ccc6c5)nc43)CC2)c1 | 26.3
C[C@@H](Oc1cc(-n2cnc3ccc(CN4CCN(C)CC4)cc32)sc1C(N)=O)c1ccccc1C(F)(F)F | 57.5
Cn1cnc(N)c2ncnc1-2 | 106.4
CO[C@H]1C[C@@H]2CC[C@@H](C)[C@@](O)(O2)C(=O)C(=O)N2CCCC[C@H]2C(=O)O[C@H]([C@H](C)C[C@@H]2CC[C@@H](OP(C)(C)=O)[C@H](OC)C2)CC(=O)[C@H](C)/C=C(\C)[C@@H](O)[C@@H](OC)C(=O)[C@H](C)C[C@H](C)/C=C/C=C/C=C/1C [Deforolimus (Ridaforolimus)] | 86.0
CO[C@H]1C[C@@H]2CC[C@@H](C)[C@@](O)(O2)C(=O)C(=O)N2CCCC[C@H]2C(=O)O[C@H]([C@H](C)C[C@@H]2CC[C@@H](O)[C@H](OC)C2)CC(=O)[C@H](C)/C=C(\C)[C@@H](O)[C@@H](OC)C(=O)[C@H](C)C[C@H](C)/C=C/C=C/C=C/1C [Rapamycin (Sirolimus)] | 81.5
COc1ccc(COc2cc3oc(=O)c4cc(C(C)O)ccc4c3cc2OC)cc1 (centres unmarked) | 103.1
Cc1nc(NC(=O)N2CCC[C@H]2C(N)=O)sc1-c1ccnc(C(C)(C)C(F)(F)F)c1 | 77.8
COc1cc(OC)c(/C=C/S(=O)(=O)Cc2ccc(OC)c(NCC(=O)O)c2)c(OC)c1 | 15.4
Cc1c(CN2CCN(C(=O)[C@H](C)O)CC2)sc2c(N3CCOCC3)nc(-c3cnc(N)nc3)nc12 [GDC-0980 (RG7422)] | 2.0
COC[C@H]1OC(=O)c2coc3c2[C@@]1(C)C1=C(C3=O)[C@@H]2CCC(=O)[C@@]2(C)C[C@H]1OC(C)=O | 76.3
CO[C@H]1C[C@@H]2CC[C@@H](C)[C@@](O)(O2)C(=O)C(=O)N2CCCC[C@H]2C(=O)O[C@H]([C@H](C)C[C@@H]2CC[C@@H](OC(=O)C(C)(CO)CO)[C@H](OC)C2)CC(=O)[C@H](C)/C=C(\C)[C@@H](O)[C@@H](OC)C(=O)[C@H](C)C[C@H](C)/C=C/C=C/C=C/1C | 82.7
CNC(=O)Nc1ccc(-c2nc(N3CC4CCC(C3)O4)c3cnn(C4CCC5(CC4)OCCO5)c3n2)cc1 | 22.1
Cc1ccc(F)c(NC(=O)Nc2ccc(-c3cccc4[nH]nc(N)c34)cc2)c1 | 60.3
Cc1ccc([N+](=O)[O-])cc1S(=O)(=O)N(C)/N=C/c1cnc2ccc(Br)cn12 [PIK-75, reference compound] | 0.6
COCCOc1ccc2c(c1)ncn2-c1ccc2cccc(N3CCC(N)CC3)c2n1 | 105.1
O=C(Nc1cccc(Nc2ncc(Br)c(NCCc3cnc[nH]3)n2)c1)N1CCCC1 | 65.1
CC[C@@H]1C(=O)N(C)c2cnc(Nc3ccc(C(=O)N[C@H]4CC[C@H](N5CCN(CC6CC6)CC5)CC4)cc3OC)nc2N1C(C)C | 43.0
CC(C)(C)c1nc(-c2cccc(NS(=O)(=O)c3c(F)cccc3F)c2F)c(-c2ccnc(N)n2)s1 | 44.5
COc1ncc(-c2ccc3nccc(-c4ccnnc4)c3c2)cc1NS(=O)(=O)c1ccc(F)cc1F | 0.469
Oc1ccc(-c2nc(-c3ccncc3)c(-c3ccc(F)cc3)[nH]2)cc1 | 83.2
CN(C)C1CCN(C(=O)c2ccc(NC(=O)Nc3ccc(-c4nc(N5CCOCC5)nc(N5CCOCC5)n4)cc3)cc2)CC1 | 14.2
COc1cccc2cc(-c3nc([C@H]4CC[C@H](C(=O)O)CC4)n4ncnc(N)c34)[nH]c12 | 46.6
